# credit: the supplement of paper PMC9732359

PROTOCOL_TEXT: protein stability index of a GFP-peptide fusion (yeast GPS) (PSI 1-4); higher = more stable; sorted into four equal gates, so the index is relative within each strain
PROTOCOL_CONDITIONS: doa10∆
Respond with Met for protein stability index values of 2 and above, Not met for values below.

Asked: Does the reported protein stability index for ENVILGQMAPIGTGAFD [RPO21] fall at or above the 2 mark?
Given back: Met

Asked: Quick check, protein stability index >= 2? EANWPLPVNIRRIIQNA [RPO21]
Given back: Not met

Asked: protein stability index >= 2 for IHSLVKQRLDLARQVKL [YIL149C/MLP2] ?
Given back: Met

Asked: Please tell me: is the sequence GFDIQKSCEPVSISTSV [SIR4] at or over 2 in terms of protein stability index?
Given back: Not met

Asked: Record FERPAVKEEKEDMETQA [RPC53] ; criterion: protein stability index no lower than 2. Met?
Given back: Met

Asked: API: above_or_equal(metric=protein stability index, cutoff=2) for item IDRNSTILYLNVFHGLC [IRR1]
Given back: Met

Asked: Hi, just wondering whether EENNYQYGYSGSSAGMN [SNF6] shows protein stability index of 2 or higher.
Given back: Met

====

PROTOCOL_TEXT: protein stability index of a GFP-peptide fusion (yeast GPS) (PSI 1-4); higher = more stable; sorted into four equal gates, so the index is relative within each strain
PROTOCOL_CONDITIONS: pdr5∆
Exercise: for every item that follows, state its recorded protein stability index.
Answer with a number only.

Asked: Identify measured protein stability index associated with LPVMESLDSCTAAFTAM [YJR042W/NUP85]
Given back: 2.37

Asked: Item IKIEPSADDDVNNGNIP [SIR3] : provide protein stability index
Given back: 2.44

Asked: Note protein stability index for the sequence shown: PAGTSLFGNNAGNTTTG [YGL172W/NUP49]
Given back: 3.24

Asked: Name the recorded protein stability index of the item SYKRIYGEYPPTKLLVS [PRE8] in your answer.
Given back: 3.03

Asked: Give protein stability index for the following sequence: QRDAEISQPKSMSGRIS [BRR2]
Given back: 3.3

Asked: // Input: NEAGRKLSDIFLSKPSK [SNF2] . Output its protein stability index only.
Given back: 3.27

Asked: Query protein stability index for VFQAKMMDMLKQTGRDQ [RPN11]
Given back: 2.58

Asked: Fill in protein stability index for record KYNRYEKRHKNVPVHVS [RPS11A]
Given back: 1.66

Asked: // Input: KLREKVNDVELAFKKNE [MTW1] . Output its protein stability index only.
Given back: 3.02

Asked: Consider the sequence NVNSRNQLVEPNRIKLS [SRB5] and give its recorded protein stability index.
Given back: 2.43

Asked: Name the recorded protein stability index of the sequence listed here: SKVSIEQRKEAAEFVLA [RPN7]
Given back: 2.49

Asked: Give the reported value of protein stability index for this record: DEDESQNIAQSSNQSAP [HRT1]
Given back: 3.15

Asked: // fetch protein stability index given entry DELILPLPSHALTVQEV [YDL116W/NUP84]
Given back: 2.56

Asked: Quote protein stability index reported for NTTDPLGHTKAALGEVA [SIR2] please.
Given back: 2.69

Asked: Provide only the value of recorded protein stability index for EDEMMHEEDQKTNIIEK [RPN12]
Given back: 3.09

Asked: Supply reported protein stability index belonging to this sequence: LMKCCHEAYSIIEKITD [RRP45]
Given back: 2.68

Asked: Annotate the sequence KKISSFKSLIDEDLLDT [YGL172W/NUP49] with its measured protein stability index.
Given back: 3.21

Asked: Provide measured protein stability index value, entry: FGATTNDDKKTEPDKPA [YJL041W/NSP1]
Given back: 2.48

Asked: Provide measured protein stability index value, entry: KLNDSQRKTVNSDDILS [POP1]
Given back: 1.99

Asked: Dear colleague, please send me the reported protein stability index for IDGKVIQAGKFDNKSTS [SNF2] when you can.
Given back: 1.42

Asked: For the sequence TEDQKVTTNINWRSFNA [SRP68] , give its measured protein stability index value.
Given back: 3.16

Asked: Given ARVLFDDMVEYEDGTPA [CYT1] , respond with its protein stability index.
Given back: 3.09

Asked: For the sequence ELKDICSFAVTKSSLND [YML103C/NUP188] , report protein stability index.
Given back: 2.96

Asked: For the sequence DNYFNLQLNEAEEFVAG [SMX3] , report protein stability index.
Given back: 2.8

Asked: Please list protein stability index recorded for the sequence RSDGMGNVLLNATVVDS [YLR335W/NUP2]
Given back: 3.15

Asked: Identify protein stability index associated with the sequence NKDLSELVIRLEKDAAD [YIL149C/MLP2]
Given back: 3.15

Asked: Supply reported protein stability index belonging to this sequence: IETIGHLITKEEIMHGL [RPN5]
Given back: 3.31

Asked: # return recorded protein stability index for entry DNSVEQGRRLGESIMSE [MCD1]
Given back: 3.41

Asked: Give the measured protein stability index for QIPVYDTFDGSDLRVLS [FAS1]
Given back: 2.92

Asked: # return recorded protein stability index for input TLILIQNPENLLSEKIL [SIR3]
Given back: 2.88

Asked: Please indicate protein stability index recorded for TLRCSVVEACGNIVAEL [YCS4]
Given back: 2.19

Asked: Return value of protein stability index for input PSKVSKIDSHVVLSFSG [PRE6] , no commentary.
Given back: 1.77

Asked: Supply protein stability index value. Item: SHNVDELLEHIETIGHL [RPN5]
Given back: 2.24

Asked: Check the records and state protein stability index for PSAVAGFINQKNLKPQE [YIL149C/MLP2]
Given back: 3.1

Asked: Give protein stability index for the following sequence: HPFGHALVAGIERYPLK [RPL27A]
Given back: 2.3

Asked: Return reported protein stability index. Input sequence: ITKLNKEIRAFDKLLNI [SRB4]
Given back: 3.44

Asked: Tell me measured protein stability index for SGTKSEVLTYVNYLISN [YJL039C/NUP192] please.
Given back: 2.5

Asked: Hello, please tell me recorded protein stability index for this one: TSSTHERKSKTYVITKN [RET1]
Given back: 2.66

Asked: Supply protein stability index value. Item: NNYPNVELTYSLNNSDS [BRR2]
Given back: 2.42

Asked: Identify protein stability index associated with the sequence WDLQLQEKESQIQLAES [SMC4]
Given back: 3.08

Asked: Write down protein stability index measured for item GTKSNEKKDSGSSKPAF [YJL041W/NSP1]
Given back: 3.45

Asked: Fill in reported protein stability index for this entry: LDSMIELFKDYKPGSIT [MED1]
Given back: 1.94

Asked: Complete the entry with protein stability index for DELMVIYISNLVRSIIA [RPN8]
Given back: 3.22

Asked: Annotate the sequence RSNDPQSSLSKVDIPLE [NUT2] with its measured protein stability index.
Given back: 3.23

Asked: Using known records, supply protein stability index for DIINAVNEIMYKCTAAM [MTW1]
Given back: 2.77

Asked: Read off the recorded protein stability index for VSIVKLDTQLITLLPSS [SNF12]
Given back: 1.9

Asked: Identify the reported protein stability index for the following entry. GVSISVSFNSKQNEQLH [SMC3]
Given back: 2.01

Asked: Answer with the recorded protein stability index of DLSVTPQKSSSKGFVFN [YAR002W/NUP60] only.
Given back: 3.06

Asked: Kindly indicate its recorded protein stability index. Item: RKSYKNQIADLSGKFST [ROX3]
Given back: 2.94

Asked: Quickly give me recorded protein stability index for FEEWIKMATDNKINSRN [BRN1]
Given back: 3.17

Asked: Using known records, supply protein stability index for NTVVGISGDISDMQHIE [PRE4]
Given back: 3.29

Asked: Query protein stability index for YTQQQALEYIGAKVKTM [RET1]
Given back: 2.34

Asked: Answer with the recorded protein stability index of WYQFSNSKDHKKITLQL [SIN4] only.
Given back: 3.47

Asked: Return the recorded protein stability index value; entry: ANTGGGLFGANSNSNSG [YGL172W/NUP49]
Given back: 2.74

Asked: Query protein stability index for IVVATEHNPSAHTASVG [COR1]
Given back: 2.46

Asked: Using known records, supply protein stability index for SGQKAGLIAARRTGLLR [RPL2A]
Given back: 3.43

Asked: Kindly indicate its recorded protein stability index. Item: DIVQYHLELYTSQYGTP [PRE3]
Given back: 1.74

Asked: Fill in reported protein stability index for this entry: MELLTQMDGFDNLGQTK [RPT4]
Given back: 3.56

Asked: Please report the measured protein stability index for YERRFGPYFVGPVVAGI [PUP3]
Given back: 2.81

====

PROTOCOL_TEXT: protein stability index of a GFP-peptide fusion (yeast GPS) (PSI 1-4); higher = more stable; sorted into four equal gates, so the index is relative within each strain
PROTOCOL_CONDITIONS: pdr5∆
# if value of protein stability index reaches 3, tag met; if it stays below, tag not met

Asked: Is it the case that IPVIALTDLDSPSEFVD [RPS0A] has protein stability index reaching or exceeding 3?
Given back: not met

Asked: Given AHCILGIGGDHAKFSPV [RPC40] , state whether its protein stability index is at least 3.
Given back: not met

Asked: Is protein stability index at least 3? Consider NRAARDRRAQRVAEKRD [RPL19A]
Given back: not met

Asked: Hello, I need to know if TELLDYATKLSKFTKIP [MED4] has measured protein stability index not below 3. Thanks!
Given back: not met

Asked: Answer whether protein stability index of YLDQHKRTRLESLKNLN [SMC3] is greater than or equal to 3.
Given back: not met

Asked: Textbook exercise: given the entry STVKGSVDLEKLAFGLT [TAF14] , state whether its protein stability index is greater than or equal to 3.
Given back: met

Asked: Assess whether reported protein stability index for VKLPRAFIDERASDLRM [RRP43] sits at 3 or higher.
Given back: not met

Asked: I'd appreciate it if you could say whether RTPHEIQEANSVDMSAL [RIP1] has protein stability index at least equal to 3.
Given back: met
